B1: library; a variant is named by its letters at N, in order (parent)
chain: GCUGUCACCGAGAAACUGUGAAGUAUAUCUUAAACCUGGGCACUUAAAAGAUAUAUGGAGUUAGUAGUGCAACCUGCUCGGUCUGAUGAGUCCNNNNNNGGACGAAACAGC

Variants of: B1
Assay: normalized RNA/DNA level with ligand (relative to sTRSVctl = 100) (log10 (% of sTRSVctl)); HEK293T; ligand: cyclic di-GMP (c-di-GMP-II aptamer); ligand concentration (+) RNA-Seq: 1 mM; higher = less ribozyme self-cleavage, higher mRNA level
Conditions: reporter: mCherry (pCS4076), ligand present: yes
Answer each item with its documented normalized RNA/DNA level with ligand (log10).
When you answer, write just the number.

May I ask what normalized RNA/DNA level with ligand (log10) has been recorded for GCUGUCACCGAGAAACUGUGAAGUAUAUCUUAAACCUGGGCACUUAAAAGAUAUAUGGAGUUAGUAGUGCAACCUGCUCGGUCUGAUGAGUCCAUUUUGGGACGAAACAGC ?
1.81

May I ask what normalized RNA/DNA level with ligand (log10) has been recorded for GCUGUCACCGAGAAACUGUGAAGUAUAUCUUAAACCUGGGCACUUAAAAGAUAUAUGGAGUUAGUAGUGCAACCUGCUCGGUCUGAUGAGUCCAUUACCGGACGAAACAGC ?
1.88

May I ask what normalized RNA/DNA level with ligand (log10) has been recorded for GCUGUCACCGAGAAACUGUGAAGUAUAUCUUAAACCUGGGCACUUAAAAGAUAUAUGGAGUUAGUAGUGCAACCUGCUCGGUCUGAUGAGUCCCCAUUGGGACGAAACAGC ?
1.55

May I ask what normalized RNA/DNA level with ligand (log10) has been recorded for GCUGUCACCGAGAAACUGUGAAGUAUAUCUUAAACCUGGGCACUUAAAAGAUAUAUGGAGUUAGUAGUGCAACCUGCUCGGUCUGAUGAGUCCUAAUAUGGACGAAACAGC ?
1.78

May I ask what normalized RNA/DNA level with ligand (log10) has been recorded for GCUGUCACCGAGAAACUGUGAAGUAUAUCUUAAACCUGGGCACUUAAAAGAUAUAUGGAGUUAGUAGUGCAACCUGCUCGGUCUGAUGAGUCCCAAUACGGACGAAACAGC ?
1.73

May I ask what normalized RNA/DNA level with ligand (log10) has been recorded for GCUGUCACCGAGAAACUGUGAAGUAUAUCUUAAACCUGGGCACUUAAAAGAUAUAUGGAGUUAGUAGUGCAACCUGCUCGGUCUGAUGAGUCCCAAAGCGGACGAAACAGC ?
1.84

May I ask what normalized RNA/DNA level with ligand (log10) has been recorded for GCUGUCACCGAGAAACUGUGAAGUAUAUCUUAAACCUGGGCACUUAAAAGAUAUAUGGAGUUAGUAGUGCAACCUGCUCGGUCUGAUGAGUCCUCCUGUGGACGAAACAGC ?
1.88

May I ask what normalized RNA/DNA level with ligand (log10) has been recorded for GCUGUCACCGAGAAACUGUGAAGUAUAUCUUAAACCUGGGCACUUAAAAGAUAUAUGGAGUUAGUAGUGCAACCUGCUCGGUCUGAUGAGUCCAACAGGGGACGAAACAGC ?
1.66

May I ask what normalized RNA/DNA level with ligand (log10) has been recorded for GCUGUCACCGAGAAACUGUGAAGUAUAUCUUAAACCUGGGCACUUAAAAGAUAUAUGGAGUUAGUAGUGCAACCUGCUCGGUCUGAUGAGUCCGGUUAUGGACGAAACAGC ?
1.8

May I ask what normalized RNA/DNA level with ligand (log10) has been recorded for GCUGUCACCGAGAAACUGUGAAGUAUAUCUUAAACCUGGGCACUUAAAAGAUAUAUGGAGUUAGUAGUGCAACCUGCUCGGUCUGAUGAGUCCAAGUAGGGACGAAACAGC ?
1.77

May I ask what normalized RNA/DNA level with ligand (log10) has been recorded for GCUGUCACCGAGAAACUGUGAAGUAUAUCUUAAACCUGGGCACUUAAAAGAUAUAUGGAGUUAGUAGUGCAACCUGCUCGGUCUGAUGAGUCCAAGGGGGGACGAAACAGC ?
1.63

May I ask what normalized RNA/DNA level with ligand (log10) has been recorded for GCUGUCACCGAGAAACUGUGAAGUAUAUCUUAAACCUGGGCACUUAAAAGAUAUAUGGAGUUAGUAGUGCAACCUGCUCGGUCUGAUGAGUCCCACAGGGGACGAAACAGC ?
1.8

May I ask what normalized RNA/DNA level with ligand (log10) has been recorded for GCUGUCACCGAGAAACUGUGAAGUAUAUCUUAAACCUGGGCACUUAAAAGAUAUAUGGAGUUAGUAGUGCAACCUGCUCGGUCUGAUGAGUCCUCACGCGGACGAAACAGC ?
1.84

May I ask what normalized RNA/DNA level with ligand (log10) has been recorded for GCUGUCACCGAGAAACUGUGAAGUAUAUCUUAAACCUGGGCACUUAAAAGAUAUAUGGAGUUAGUAGUGCAACCUGCUCGGUCUGAUGAGUCCCGGCCCGGACGAAACAGC ?
1.94

May I ask what normalized RNA/DNA level with ligand (log10) has been recorded for GCUGUCACCGAGAAACUGUGAAGUAUAUCUUAAACCUGGGCACUUAAAAGAUAUAUGGAGUUAGUAGUGCAACCUGCUCGGUCUGAUGAGUCCAAAACGGGACGAAACAGC ?
1.71

May I ask what normalized RNA/DNA level with ligand (log10) has been recorded for GCUGUCACCGAGAAACUGUGAAGUAUAUCUUAAACCUGGGCACUUAAAAGAUAUAUGGAGUUAGUAGUGCAACCUGCUCGGUCUGAUGAGUCCCACGGAGGACGAAACAGC ?
1.72

May I ask what normalized RNA/DNA level with ligand (log10) has been recorded for GCUGUCACCGAGAAACUGUGAAGUAUAUCUUAAACCUGGGCACUUAAAAGAUAUAUGGAGUUAGUAGUGCAACCUGCUCGGUCUGAUGAGUCCAGCGCAGGACGAAACAGC ?
1.78

May I ask what normalized RNA/DNA level with ligand (log10) has been recorded for GCUGUCACCGAGAAACUGUGAAGUAUAUCUUAAACCUGGGCACUUAAAAGAUAUAUGGAGUUAGUAGUGCAACCUGCUCGGUCUGAUGAGUCCUAGGACGGACGAAACAGC ?
1.73

May I ask what normalized RNA/DNA level with ligand (log10) has been recorded for GCUGUCACCGAGAAACUGUGAAGUAUAUCUUAAACCUGGGCACUUAAAAGAUAUAUGGAGUUAGUAGUGCAACCUGCUCGGUCUGAUGAGUCCAGACUUGGACGAAACAGC ?
1.84

May I ask what normalized RNA/DNA level with ligand (log10) has been recorded for GCUGUCACCGAGAAACUGUGAAGUAUAUCUUAAACCUGGGCACUUAAAAGAUAUAUGGAGUUAGUAGUGCAACCUGCUCGGUCUGAUGAGUCCAGGACGGGACGAAACAGC ?
1.7

May I ask what normalized RNA/DNA level with ligand (log10) has been recorded for GCUGUCACCGAGAAACUGUGAAGUAUAUCUUAAACCUGGGCACUUAAAAGAUAUAUGGAGUUAGUAGUGCAACCUGCUCGGUCUGAUGAGUCCACUGAAGGACGAAACAGC ?
1.64

May I ask what normalized RNA/DNA level with ligand (log10) has been recorded for GCUGUCACCGAGAAACUGUGAAGUAUAUCUUAAACCUGGGCACUUAAAAGAUAUAUGGAGUUAGUAGUGCAACCUGCUCGGUCUGAUGAGUCCUCUCGAGGACGAAACAGC ?
1.86

May I ask what normalized RNA/DNA level with ligand (log10) has been recorded for GCUGUCACCGAGAAACUGUGAAGUAUAUCUUAAACCUGGGCACUUAAAAGAUAUAUGGAGUUAGUAGUGCAACCUGCUCGGUCUGAUGAGUCCAGUUAGGGACGAAACAGC ?
1.75

May I ask what normalized RNA/DNA level with ligand (log10) has been recorded for GCUGUCACCGAGAAACUGUGAAGUAUAUCUUAAACCUGGGCACUUAAAAGAUAUAUGGAGUUAGUAGUGCAACCUGCUCGGUCUGAUGAGUCCUACGAGGGACGAAACAGC ?
1.82

May I ask what normalized RNA/DNA level with ligand (log10) has been recorded for GCUGUCACCGAGAAACUGUGAAGUAUAUCUUAAACCUGGGCACUUAAAAGAUAUAUGGAGUUAGUAGUGCAACCUGCUCGGUCUGAUGAGUCCGCCAUCGGACGAAACAGC ?
1.77

May I ask what normalized RNA/DNA level with ligand (log10) has been recorded for GCUGUCACCGAGAAACUGUGAAGUAUAUCUUAAACCUGGGCACUUAAAAGAUAUAUGGAGUUAGUAGUGCAACCUGCUCGGUCUGAUGAGUCCUGGCUUGGACGAAACAGC ?
1.88

May I ask what normalized RNA/DNA level with ligand (log10) has been recorded for GCUGUCACCGAGAAACUGUGAAGUAUAUCUUAAACCUGGGCACUUAAAAGAUAUAUGGAGUUAGUAGUGCAACCUGCUCGGUCUGAUGAGUCCGUCCCGGGACGAAACAGC ?
1.85

May I ask what normalized RNA/DNA level with ligand (log10) has been recorded for GCUGUCACCGAGAAACUGUGAAGUAUAUCUUAAACCUGGGCACUUAAAAGAUAUAUGGAGUUAGUAGUGCAACCUGCUCGGUCUGAUGAGUCCCGACGCGGACGAAACAGC ?
1.82

Measured values drawn from the supplement of paper PMC6757056 for this set.
